Parameter EC50, HTRF long substrate: see the listing below.
# TESTED SYSTEM: BACE1 (HTRF long substrate and FRET short substrate assays of Example 9D)
# PROTOCOL TEXT: cell-based or functional assay
Value expressed in nM; do not type the unit.

Recorded results for 3 binders are shown here.
>  <BINDER>
5897 (antibody, V domains shown, anti-BACE1 IgG) VH: QLQLQESGPGLVKPSETLSLTCTVSGGSISWSSYYWSWIRQPPGKGLEWIGSIYKSGRTYYNPSLKSRVTISVDTSKNQFSLKLSSVTAADTAVYYCARVGHGISYFDLWGRGTLVTVSS VL: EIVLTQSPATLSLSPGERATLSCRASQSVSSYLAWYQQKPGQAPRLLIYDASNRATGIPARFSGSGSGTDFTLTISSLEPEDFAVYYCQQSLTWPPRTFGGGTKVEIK

>  <EC50, HTRF long substrate (nM)>
1.39

$$$$
>  <BINDER>
5890 (antibody, V domains shown, anti-BACE1 IgG) VH: QVQLVQSGAEVKKPGSSVKVSCKASGGTFSSYAISWVRQAPGQGLEWMGNIIPGFGTANYAQKFQGRVTITADESTSTAYMELSSLRSEDTAVYYCARSGGTKYGMLDVWGQGTMVTVSS VL: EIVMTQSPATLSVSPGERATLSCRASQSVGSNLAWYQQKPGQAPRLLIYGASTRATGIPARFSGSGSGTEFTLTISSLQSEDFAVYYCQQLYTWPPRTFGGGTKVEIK

>  <EC50, HTRF long substrate (nM)>
4.06

$$$$
>  <BINDER>
5896 (antibody, V domains shown, anti-BACE1 IgG) VH: QLQLQESGPGLVKPSETLSLTCTVSGGSISSSSYYWGWIRQPPGKGLEWIGSIYRSGSTYYNPSLKSRVTISVDTSKNQFSLKLSSVTAADTAVYYCARVGHGISYFDLWGRGTLVTVSS VL: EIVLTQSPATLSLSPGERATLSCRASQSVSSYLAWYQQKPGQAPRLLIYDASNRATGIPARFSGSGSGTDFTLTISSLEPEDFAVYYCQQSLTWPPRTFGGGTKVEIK

>  <EC50, HTRF long substrate (nM)>
3.46

$$$$

// query // returns reported EC50, HTRF long substrate for input 5892 (antibody, V domains shown, anti-BACE1 IgG) VH: QVQLVQSGAEVKKPGSSVKVSCKASGGTFSSYAISWVRQAPGQGLEWMGNIIPIFGTATYAQKFQGRVTITADESTSTAYMELSSLRSEDTAVYYCARSGGTKYGMLDVWGQGTMVTVSS VL: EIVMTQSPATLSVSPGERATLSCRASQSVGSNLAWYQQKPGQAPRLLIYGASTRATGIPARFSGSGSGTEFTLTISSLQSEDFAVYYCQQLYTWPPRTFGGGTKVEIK
// result 1.19

// query For 5903 (antibody, V domains shown) VH: QLQLQESGPGLVKPSETLSLTCTVSGGSISSSSYYWGWIRQPPGKGLEWIGMIYYSGSTWYNPSLKSRVTISVDTSKNQFSLKLSSVTAADTAVYYCARVGHGISYFDLWGRGTLVTVSS VL: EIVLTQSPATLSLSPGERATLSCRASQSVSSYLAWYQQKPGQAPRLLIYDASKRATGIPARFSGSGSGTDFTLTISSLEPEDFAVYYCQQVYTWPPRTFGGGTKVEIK then?
// result 1.38

Every entry's value here was drawn from patent US20180057604A1.
